The origin of these recorded values is paper PMC5540273.

- Tested on: NEK5
- MEASUREMENT_CONTEXT: concentration: 1 μM, replicates: in singlicate; n = 1;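 note: KINOMEscan kinase panel screen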
OBSERVATION_TYPE: %Inh (%)
Could you give me the number in %? Just the number is fine.

{"COMPOUND": "CS(=O)(=O)c1cccc(CNc2nc(Nc3ccc4c(c3)CCC(=O)N4)ncc2C(F)(F)F)c1", "TEST_SYSTEM": "NEK5", "VALUE": 28}

Input line: Quick one: %Inh for Cc1ccc(Nc2ccnc(Nc3ccc(C)c(F)c3)n2)cc1O.Cl ?
Output line: 4

Input line: Okay, and COc1cccc(NC(=O)NCCNc2ccnc(Nc3ccc(F)cc3)n2)c1 ?
Output line: 11

Input line: Okay, and O=C(Nc1n[nH]c2nc(-c3cccc(O)c3)ccc12)C1CC1 ?
Output line: 0

Input line: Okay, and Fc1cc(Cl)ccc1Nc1ccnc2cc(-c3ccc(CN4CCOCC4)o3)ccc12 ?
Output line: 1

Input line: Okay, and Cn1cc(-c2ccc3c(c2)CCN3C(=O)Cc2cc(F)cc(C(F)(F)F)c2)c2c(N)ncnc21 ?
Output line: 0

Input line: Okay, and CSc1ccc(NC2=C(c3ccc(Cl)cc3)C(=O)NC2=O)cc1 ?
Output line: 29

Input line: Okay, and Cl.N#CCc1ccc(Nc2nccc(Nc3ccc(Oc4ccccc4)cc3)n2)cc1 ?
Output line: 24

Input line: Okay, and Cc1ccc(O)cc1Nc1ccnc2cc(-c3ccc(CN4CCCCC4)o3)ccc12 ?
Output line: 0

Input line: Okay, and COc1cc(Nc2nccc(N3CCC(NS(=O)(=O)c4ccc(NC(C)=O)cc4)CC3)n2)cc(OC)c1OC ?
Output line: 100

====

Reported %Inh values for the following compounds.
- Tested on: MAPKAPK2
- MEASUREMENT_CONTEXT: concentration: 1 μM, replicates: in singlicate; n = 1
Could you give me the number in %? Just the number is fine.

Example results:
{"COMPOUND": "CSc1ccc(NC2=C(c3ccc(Cl)cc3)C(=O)NC2=O)cc1", "%Inh [%]": 1}
{"COMPOUND": "Nc1cccc(-c2ccc3c(N)n[nH]c3c2)c1", "%Inh [%]": 0}
{"COMPOUND": "CC(C)NCC(Cc1ccccc1)NC(=O)c1cc(Br)c(-c2ccnc3[nH]ccc23)s1.Cl.Cl (stereo not drawn)", "%Inh [%]": 0}
{"COMPOUND": "Cc1cc(-c2ccnc(Nc3cccc(C#N)c3)n2)cc(C)c1O", "%Inh [%]": 0}
{"COMPOUND": "Cc1ccc(NC(=O)c2ccc(Cl)c(Cl)c2)cc1-c1ccc(C(=O)Nc2ccncc2)cc1", "%Inh [%]": 15}
{"COMPOUND": "Cc1nn2c(=O)cc(N3CCO[C@H](C)C3)nc2n1Cc1cccc(Cl)c1Cl", "%Inh [%]": 12}
{"COMPOUND": "N#CC1(c2cccc(C(=O)Nc3cccc(Oc4ccc5nc(NC(=O)C6CC6)sc5n4)c3)c2)CC1", "%Inh [%]": 0}
{"COMPOUND": "Nc1ncc(-c2ccc3nccc(-c4ccncc4)c3c2)cc1S(=O)(=O)N1CCCCC1", "%Inh [%]": 5}

Input line: Quick one: %Inh for Cl.O=C(Nc1ccc(Oc2ccc3[nH]c(NC(=O)c4ccco4)nc3c2)cc1)Nc1cc(C(F)(F)F)ccc1F ?
Output line: 93

====

- System: MAP3K1
- MEASUREMENT_CONTEXT: concentration: 1 μM, replicates: in singlicate; n = 1
Mark class 1 only when %Inh stays strictly below 20%. Values equal to the cut-off are class 0.

Solved cases below.
{"SMILES_INPUT": "Cc1ccc(NC(=O)c2ccc(Cl)c(Cl)c2)cc1-c1ccc(C(=O)Nc2ccncc2)cc1", "TEST_SYSTEM": "MAP3K1", "CATEGORY_LABEL": "class 1"}
{"SMILES_INPUT": "Cl.N#CCc1ccc(Nc2nccc(Nc3ccc(Oc4ccccc4)cc3)n2)cc1", "TEST_SYSTEM": "MAP3K1", "CATEGORY_LABEL": "class 1"}
{"SMILES_INPUT": "CN(c1ccc(NC(=O)N2CCN(CCCN3CCOCC3)CC2)cc1)c1ccnc(Nc2ccc(CS(C)(=O)=O)cc2)n1.Cl", "TEST_SYSTEM": "MAP3K1", "CATEGORY_LABEL": "class 1"}
{"SMILES_INPUT": "Cc1ccccc1CC(=O)N1CCc2cc(-c3cn(C)c4ncnc(N)c34)ccc21", "TEST_SYSTEM": "MAP3K1", "CATEGORY_LABEL": "class 1"}
{"SMILES_INPUT": "COc1cccc(-c2nc(-c3ccccc3)[nH]c2-c2ccncc2)c1", "TEST_SYSTEM": "MAP3K1", "CATEGORY_LABEL": "class 1"}

# next compound below
Input line: Please determine if CN(C)CCNS(=O)(=O)c1ccc(-c2ccnc3[nH]ccc23)cc1 is below 20% in terms of %Inh.
Output line: class 1

====

- Test system: HIPK2
- MEASUREMENT_CONTEXT: concentration: 1 μM, replicates: in singlicate; n = 1
OBSERVATION_TYPE: %Inh (%)
Could you give me the number in %? Just the number is fine.

Example results:
{"COMPOUND": "Cn1cc(-c2ccc3c(c2)CCN3C(=O)Cc2cc(F)cc(C(F)(F)F)c2)c2c(N)ncnc21 [GSK2635225]", "READOUT_UNIT": "%", "%Inh": 0}
{"COMPOUND": "COc1cc(Nc2nccc(N3CCC(NS(=O)(=O)c4ccc(NC(C)=O)cc4)CC3)n2)cc(OC)c1OC [GSK1379825]", "READOUT_UNIT": "%", "%Inh": 0}
{"COMPOUND": "O=C(Nc1c(F)cccc1F)c1cc(C(=O)c2ccccc2F)c[nH]1 [GSK1326180]", "READOUT_UNIT": "%", "%Inh": 44}

Input line: Quick one: %Inh for Cc1ccc(Nc2ccnc(Nc3ccc(C)c(F)c3)n2)cc1O.Cl [GW582868] ?
Output line: 0

====

- Tested on: DAPK1
- MEASUREMENT_CONTEXT: concentration: 1 μM, replicates: in singlicate; n = 1
OBSERVATION_TYPE: %Inh (%)
Could you give me the number in %? Just the number is fine.

{"MOLECULE": "Nc1ncc(-c2ccc3nccc(-c4ccncc4)c3c2)cc1S(=O)(=O)N1CCCCC1 [GSK1693850]", "TEST_SYSTEM": "DAPK1", "%Inh / %": 11}
{"MOLECULE": "Fc1cc(Cl)ccc1Nc1ccnc2cc(-c3ccc(CN4CCSCC4)o3)ccc12 [GW560106]", "TEST_SYSTEM": "DAPK1", "%Inh / %": 0}
{"MOLECULE": "Cc1cc(-c2c(-c3ccc(F)cc3)ncn2CCCN2CCOCC2)nc(N)n1 [SB-222517]", "TEST_SYSTEM": "DAPK1", "%Inh / %": 0}

Input line: Quick one: %Inh for CN(c1ccc(F)c(NC(=O)c2cccc(OC(C)(C)C#N)c2Cl)c1)c1ccc2nc(NC(=O)C3CC3)sc2n1 ?
Output line: 4

Input line: Okay, and CNc1nccc(-c2ccc3c(N)n[nH]c3c2)n1 [GSK2206003] ?
Output line: 29

====

- System: RIOK2
- MEASUREMENT_CONTEXT: concentration: 1 μM, replicates: in singlicate; n = 1
Reported %Inh values for the following compounds.
Could you give me the number in %? Just the number is fine.

Example results:
{"COMPOUND": "Fc1cc(Cl)ccc1Nc1ccnc2cc(-c3ccc(CN4CCSCC4)o3)ccc12 [GW560106]", "%Inh (%)": 0}
{"COMPOUND": "Cl.N#CCc1ccc(Nc2nccc(Nc3ccc(Oc4ccccc4)cc3)n2)cc1 [GW639905]", "%Inh (%)": 23}
{"COMPOUND": "CNc1nccc(-c2ccc3c(N)n[nH]c3c2)n1 [GSK2206003]", "%Inh (%)": 85}
{"COMPOUND": "CN(c1ccc(NC(=O)Nc2cccc(Cl)c2)cc1)c1ccnc(N)n1.Cl [GW830707]", "%Inh (%)": 0}
{"COMPOUND": "CCNc1nccc(-c2c(-c3ccc(F)cc3)ncn2C2CCN(C)CC2)n1", "%Inh (%)": 0}
{"COMPOUND": "Cn1cc(-c2ccc3c(c2)CCN3C(=O)Cc2cc(F)cc(C(F)(F)F)c2)c2c(N)ncnc21 [GSK2635225]", "%Inh (%)": 2}
{"COMPOUND": "CN(c1ccc(F)c(NC(=O)c2cccc(OC(C)(C)C#N)c2Cl)c1)c1ccc2nc(NC(=O)C3CC3)sc2n1", "%Inh (%)": 71}

Could you now consider this next compound?
Input line: Quick one: %Inh for Cc1ccc(C)c(NC(=O)Nc2ccc(C)c(-c3ccc(C(=O)Nc4ccncc4)cc3)c2)c1 [GSK1398473] ?
Output line: 48
